Task for the reader: assign each of the following compounds its reported fiber score / MBP score.
system: E18 rat cortical neuron-glia co-culture; assay: fiber score / MBP score (myelination specific beyond OL differentiation) (ratio); higher = more myelination-specific MBP alignment; details: 1 µM; treatment time: 8 days (DIV5-DIV13)
Where a name gives a salt, the structure may show the parent alone.

The examples below pair each entry with its known result.
1) CN(CCOc1ccc(CC2SC(=O)NC2=O)cc1)c1ccccn1 (stereo unspecified) [Rosiglitazone maleate]: 0.752
2) COc1ccc2[nH]c([S@@+]([O-])Cc3ncc(C)c(OC)c3C)nc2c1: 0.799

Please report fiber score / MBP score for every entry that follows.
1. CCCC1O[C@@H]2C[C@H]3[C@@H]4CCC5=CC(=O)C=C[C@]5(C)[C@H]4[C@@H](O)C[C@]3(C)[C@]2(C(=O)CO)O1 (stereo partly specified) [Budesonide]
2. CC(C)(C)NC[C@H](O)COc1nsnc1N1CCOCC1
3. CCN1CCCC1CNC(=O)c1cc(S(N)(=O)=O)ccc1OC (stereo unspecified) [Sulpiride]

a:
1. 0.86
2. 0.869
3. 0.858

====

system: E18 rat cortical neuron-glia co-culture; experiment: fiber score / MBP score (myelination specific beyond OL differentiation) (ratio); higher = more myelination-specific MBP alignment; details: 5 µM; treatment time: 8 days (DIV5-DIV13)
EXPERIMENTAL ENDPOINT: fiber score / MBP score

Please report fiber score / MBP score for every entry that follows.
1. COc1cc(NC(C)CCCN)c2ncccc2c1 (stereo not drawn)
2. CC1(C)O[C@@H]2C[C@H]3[C@@H]4CCC5=CC(=O)C=C[C@]5(C)[C@@]4(F)[C@@H](O)C[C@]3(C)[C@]2(C(=O)CO)O1 [Triamcinolone Acetonide]
3. CN(C)CCC(c1ccc(Cl)cc1)c1ccccn1 (stereo not drawn)
4. Cc1[nH]c(=O)c(C#N)cc1-c1ccncc1
5. CC(C)(C)NC[C@H](O)COc1nsnc1N1CCOCC1

a:
1: 0.985; 2: 1.32; 3: 0.471; 4: 0.504; 5: 1.02

Please report fiber score / MBP score for every entry that follows.
1. COCC1=C(C(=O)OC(C)OC(=O)OC(C)C)N2C(=O)[C@@H](NC(=O)/C(=N\OC)c3csc(N)n3)[C@H]2SC1 (stereo partly drawn)
2. COc1ccnc(C[S+]([O-])c2nc3cc(OC(F)F)ccc3[nH]2)c1OC (stereo not drawn)
3. O=C(O)c1cc(=O)c2c(OCC(O)COc3cccc4oc(C(=O)O)cc(=O)c34)cccc2o1 [Cromolyn Sodium]

a:
[0.866, 0.933, 0.409]

====

system: E18 rat cortical neuron-glia co-culture; assay: myelination (MBP fiber length per Olig2+ nucleus), % of 1 µM DAPT response (DMSO = 0) (% of DAPT); higher = more myelination, active = 50 or more; details: 1 µM; treatment time: 8 days (DIV5-DIV13)
EXPERIMENTAL ENDPOINT: myelination
Numbers only.

The examples below pair each entry with its known result.
1. O=C1CCc2ccc(OCCCCN3CCN(c4cccc(Cl)c4Cl)CC3)cc2N1: -54.9
2. CC(C)c1ccc2oc3nc(N)c(C(=O)O)cc3c(=O)c2c1: -13.2
3. CC(COc1ccccc1)N(CCCl)Cc1ccccc1 (stereo not drawn): -14.4
4. Nc1ncnc2c1ncn2[C@@H]1O[C@H](CO)[C@@H](O)[C@@H]1O: -13.9
5. CC1(C)C[C@@H]1C(=O)N/C(=C\CCCCSC[C@H](N)C(=O)O)C(=O)O: -11.5
6. CO/N=C(\C(=O)N[C@@H]1C(=O)N2C(C(=O)O)=C(COC(N)=O)CS[C@H]12)c1ccco1: -44.2

Please report myelination for every entry that follows.
1. CCN(CC)CCNC(=O)c1ccc(N)cc1 [Procainamide]
2. C[C@@H](O)[C@H]1C(=O)N2C(C(=O)O)=C(S[C@@H]3CN[C@H](C(=O)N(C)C)C3)[C@H](C)[C@H]12

a:
1. -8.23
2. 2.11

====

system: E18 rat cortical neuron-glia co-culture; assay: myelination (MBP fiber length per Olig2+ nucleus), % of 1 µM DAPT response (DMSO = 0) (% of DAPT); higher = more myelination, active = 50 or more; conditions: 5 µM; treatment time: 8 days (DIV5-DIV13)
EXPERIMENTAL ENDPOINT: myelination
Answers are plain numbers.

Please report myelination for every entry that follows.
1. CC1(C)O[C@@H]2[C@@H](CO[C@@]3(COS(N)(=O)=O)OC(C)(C)O[C@@H]23)O1 [Topiramate]
2. CC1COc2c(N3CCN(C)CC3)c(F)cc3c(=O)c(C(=O)O)cn1c23 (centres undefined) [Ofloxacin]
3. O=C(O)COCCN1CCN(C(c2ccccc2)c2ccc(Cl)cc2)CC1 (centres undefined) [Cetirizine]

a:
1: -11.6; 2: -17; 3: -4.35

q: Dear colleague, I am looking for the recorded myelination of the following molecule: CC(C)[C@H]1CC[C@H](C(=O)N[C@H](Cc2ccccc2)C(=O)O)CC1 [Nateglinide]
a: -10.9

====

Task for the reader: assign each of the following compounds its reported fiber score / MBP score.
system: E18 rat cortical neuron-glia co-culture; assay: fiber score / MBP score (myelination specific beyond OL differentiation) (ratio); higher = more myelination-specific MBP alignment; settings: 1 µM; treatment time: 8 days (DIV5-DIV13)
Structures can show the parent of a compound that is named as a salt.
Answers are plain numbers.

The examples below pair each entry with its known result.
1) Clc1cccc(Cl)c1NC1=NCCN1 [Clonidine hydrochloride]: 0.735
2) C=CC[C@@H]1/C=C(\C)C[C@H](C)C[C@H](OC)[C@H]2O[C@@](O)(C(=O)C(=O)N3CCCC[C@H]3C(=O)O[C@H](/C(C)=C/[C@@H]3CC[C@@H](O)[C@H](OC)C3)[C@H](C)[C@@H](O)CC1=O)[C@H](C)C[C@@H]2OC [Tacrolimus]: 0.687
3) Nc1nc(F)nc2c1ncn2[C@@H]1O[C@H](CO)[C@@H](O)[C@@H]1O [Fludarabine]: 0.675

Please report fiber score / MBP score for every entry that follows.
1. Cc1nc2ccccn2c(=O)c1CCN1CCC(C(=O)c2ccc(F)cc2)CC1 [Pirenperone]
2. Nc1ccn([C@@H]2CS[C@H](CO)O2)c(=O)n1 [Lamivudine]
3. CCCCCCNC(=O)n1cc(F)c(=O)[nH]c1=O [Carmofur]
4. CN(C)c1ccc(O)c2c1C[C@H]1C[C@H]3[C@H](N(C)C)C(O)=C(C(N)=O)C(=O)[C@@]3(O)C(O)=C1C2=O [Minocycline]

a:
0.876
0.832
0.54
0.788

====

test system: E18 rat cortical neuron-glia co-culture; experiment: fiber score / MBP score (myelination specific beyond OL differentiation) (ratio); higher = more myelination-specific MBP alignment; details: 1 µM; treatment time: 8 days (DIV5-DIV13)
Counter-ions that a name gives are not always drawn.
EXPERIMENTAL ENDPOINT: fiber score / MBP score
Give bare numbers.

Please report fiber score / MBP score for every entry that follows.
1. C[C@]12CC[C@@H]3c4ccc(OS(=O)(=O)O)cc4CC[C@H]3[C@@H]1CCC2=O [Estrone sulfate]
2. N=C(N)NC(=O)c1nc(Cl)c(N)nc1N [Amiloride]

a:
1.04
0.887

====

test system: E18 rat cortical neuron-glia co-culture; assay: fiber score / MBP score (myelination specific beyond OL differentiation) (ratio); higher = more myelination-specific MBP alignment; details: 1 µM; treatment time: 8 days (DIV5-DIV13)
EXPERIMENTAL ENDPOINT: fiber score / MBP score
One number for each entry.

1) O=C1CCC(N2C(=O)c3ccccc3C2=O)C(=O)N1 (centres undefined) [Thalidomide]: 1.07
2) CC(=O)S[C@@H]1CC2=CC(=O)CC[C@]2(C)[C@H]2CC[C@@]3(C)[C@@H](CC[C@@]34CCC(=O)O4)[C@H]12: 0.765
3) c1ccc2c(CC3=NCCN3)cccc2c1: 1.1

// below: fiber score / MBP score requested for another compound
q: Dear colleague, I am looking for the recorded fiber score / MBP score of the following compound: CC(=O)OCC(=O)[C@@]1(O)CC[C@H]2[C@@H]3C[C@H](C)C4=CC(=O)C=C[C@]4(C)[C@H]3[C@@H](O)C[C@@]21C [Methylprednisolone acetate]
a: 0.468

====

system: E18 rat cortical neuron-glia co-culture; experiment: fiber score / MBP score (myelination specific beyond OL differentiation) (ratio); higher = more myelination-specific MBP alignment; details: 1 µM; treatment time: 8 days (DIV5-DIV13)
EXPERIMENTAL ENDPOINT: fiber score / MBP score

The examples below pair each entry with its known result.
1. CC1(C)C[C@@H]1C(=O)N/C(=C\CCCCSC[C@H](N)C(=O)O)C(=O)O: 0.833
2. CC1(C)O[C@@H]2C[C@H]3[C@@H]4CCC5=CC(=O)C=C[C@]5(C)[C@@]4(F)[C@@H](O)C[C@]3(C)[C@]2(C(=O)CO)O1 [Azmacort]: 0.687
3. COC(=O)Nc1nc2cc(C(=O)c3ccc(F)cc3)ccc2[nH]1: 0.494
4. C[C@H]1COc2c(C3(N)CC3)c(F)cc3c(=O)c(C(=O)O)cn1c23: 0.814
5. COc1ccccc1OCCNCC(O)COc1cccc2[nH]c3ccccc3c12 (stereo not drawn): 0.762

Please report fiber score / MBP score for every entry that follows.
1. CC(=O)OCC(CCn1cnc2cnc(N)nc21)COC(C)=O
2. CC(=O)N1CCN(c2ccc(OCC3COC(Cn4ccnc4)(c4ccc(Cl)cc4Cl)O3)cc2)CC1 (stereo not drawn)
3. CC1(C)S[C@@H]2[C@H](NC(=O)[C@H](N)c3ccccc3)C(=O)N2[C@H]1C(=O)O

a:
1. 0.681
2. 0.468
3. 0.301

# credit: the supplement of paper PMC4840960
